- assayed target: human neutrophil elastase (Homo sapiens, UniProt P08246)
- Sequence (P08246 30-267): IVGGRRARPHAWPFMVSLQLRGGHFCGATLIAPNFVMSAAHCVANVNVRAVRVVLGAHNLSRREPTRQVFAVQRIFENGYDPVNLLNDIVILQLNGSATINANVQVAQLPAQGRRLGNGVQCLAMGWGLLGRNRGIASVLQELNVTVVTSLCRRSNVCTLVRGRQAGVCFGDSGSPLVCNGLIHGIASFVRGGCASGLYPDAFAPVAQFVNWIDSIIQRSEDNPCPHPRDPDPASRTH
- measurement notes: In vitro assay of human neutrophil elastase (HNE)
- Type: biochemical
- test conditions: 118 nM purified human neutrophil elastase, pH 8.6, 15 min incubation at 30° C., MeO-succinyl-alanyl-alanyl-prolyl-valyl-p-nitroanilide substrate; read-out: HNE IC50
quantity name: IC50 (nM)

a: CCC[C@H]1C(=O)N(S(C)(=O)=O)[C@H]2CCN(C(=O)/C=C/c3ccc(NC(C)=O)cc3)[C@H]12 (relative stereo)
b: CCC[C@H]1C(=O)N(S(C)(=O)=O)[C@H]2CCN(C(=O)/C=C/C(=O)O)[C@H]12 (relative stereo)
c: CCC[C@H]1C(=O)N(S(C)(=O)=O)[C@H]2CCN(S(=O)(=O)c3ccc(NC(C)=O)cc3)[C@H]12 (relative stereo)
Please put the entries in order of rising IC50. API: response body holds the labels in the requested order.
c, b, a
(c: 6 nM, b: 14 nM, a: 23 nM)

---

- assayed target: human neutrophil elastase (Homo sapiens)
- Sequence (P08246 30-267): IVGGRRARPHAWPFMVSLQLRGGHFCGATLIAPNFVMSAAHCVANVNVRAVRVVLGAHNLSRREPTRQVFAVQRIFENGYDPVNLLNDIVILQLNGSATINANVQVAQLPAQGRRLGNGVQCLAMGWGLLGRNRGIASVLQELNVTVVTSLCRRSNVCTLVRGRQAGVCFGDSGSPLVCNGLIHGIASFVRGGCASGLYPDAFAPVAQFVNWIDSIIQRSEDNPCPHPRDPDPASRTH
- measurement notes: In vitro assay of human neutrophil elastase (HNE)
- Format: biochemical
- test conditions: 118 nM purified human neutrophil elastase, pH 8.6, 15 min incubation at 30° C., MeO-succinyl-alanyl-alanyl-prolyl-valyl-p-nitroanilide substrate; read-out: HNE IC50
pIC50: −log10 of the molar value. Where a name gives a salt, the structure may show the parent alone.
quantity name: pIC50

Take a look at these entries with their results.
molecule: CCC[C@H]1C(=O)N(S(C)(=O)=O)[C@H]2CCN(C(=O)Cn3ccccc3=O)[C@H]12 (relative stereo)
pIC50: 6.65
//
molecule: CC(C)[C@H]1C(=O)N(S(C)(=O)=O)[C@H]2CCN(C(=O)CCN3CCCCC3)[C@H]12 (relative stereo) [Example 61, hydrochloride]
pIC50: 6.62
//
molecule: CCC[C@H]1C(=O)N(S(C)(=O)=O)[C@H]2CCN(C(=O)/C=C/C(=O)N3CCN(C)CC3)[C@H]12 (relative stereo) [Example 130, hydrochloride]
pIC50: 7.33

I: CC(=O)N1CCN(C/C=C/C(=O)N2CC[C@H]3[C@H]2[C@@H](C(C)C)C(=O)N3S(C)(=O)=O)CC1.Cl (relative stereo) [Example 138, hydrochloride]
II: CCC[C@H]1C(=O)N(S(=O)(=O)c2ccc3ccccc3c2)[C@H]2CCN(S(=O)(=O)CCCN3CCCCC3)[C@H]12 (relative stereo)
Endpoint returns the identifier whose pIC50 is numerically larger, either I or II . Could you answer with the label of the item you picked?
I
(I: 7.38, II: 6.27)

---

- assayed target: human neutrophil elastase (Homo sapiens, UniProt P08246)
- measurement notes: In vitro assay of human neutrophil elastase (HNE)
- Format: biochemical
- test conditions: 118 nM purified human neutrophil elastase, pH 8.6, 15 min incubation at 30° C., MeO-succinyl-alanyl-alanyl-prolyl-valyl-p-nitroanilide substrate; read-out: HNE IC50
- Method: In Vitro Assays of Human Neutrophil Elastase 118 nM purified human neutrophil elastase Suitable concentrations of compound under test diluted with water from a 10 mM stock solution in dimethylsulphoxide. […] The mixture above is incubated for fifteen minutes at 30° C. at which time the remaining elastase activity is measured for 10 minutes in a BioTek 340i plate-reader, after the addition of 0.6 mM MeO-succinyl-alanyl-alanyl-prolyl-valyl-p-nitroanilide. […]
pIC50: −log10 of the molar value. Structures can show the parent of a compound that is named as a salt.
quantity name: pIC50

Take a look at these entries with their results.
compound: CCC[C@H]1C(=O)N(S(C)(=O)=O)[C@H]2CCN(C(=O)CCCN(C)C)[C@H]12 (relative stereo) [Example 85]
observed result: 6.74

compound: C/C=C/C(=O)N1CC[C@H]2[C@H]1[C@@H](CCC)C(=O)N2S(C)(=O)=O (relative stereo) [Example 131]
observed result: 6.99

compound: CCC[C@H]1C(=O)N(S(=O)(=O)c2cccc3cnccc23)[C@H]2CCN(S(C)(=O)=O)[C@H]12 (relative stereo) [Example 51]
observed result: 7.26

compound: CC(C)[C@H]1C(=O)N(S(C)(=O)=O)[C@H]2CCN(S(=O)(=O)c3ccc(CN4CCCCC4)cc3)[C@H]12 (relative stereo) [Example 198, hydrochloride]
observed result: 6.90

1: CCCCOc1ccc(S(=O)(=O)N2C(=O)[C@H](CCC)[C@@H]3[C@@H]2CCN3C(=O)CCCCCN2CCCCC2)cc1 (relative stereo) [Example 204]
2: CCC[C@H]1C(=O)N(S(C)(=O)=O)[C@H]2CCN(C(=O)c3ccco3)[C@H]12 (relative stereo) [Example 231]
Consider entries 1 and 2 . Which has the numerically lower pIC50? Could you answer with the label of the item you picked?
1
(1: 7.01, 2: 7.46)

---

- assayed target: human neutrophil elastase (Homo sapiens, UniProt P08246)
- measurement notes: In vitro assay of human neutrophil elastase (HNE)
- Format: biochemical
- test conditions: 118 nM purified human neutrophil elastase, pH 8.6, 15 min incubation at 30° C., MeO-succinyl-alanyl-alanyl-prolyl-valyl-p-nitroanilide substrate; read-out: HNE IC50
pIC50: −log10 of the molar value. Structures can show the parent of a compound that is named as a salt.
quantity name: pIC50

molecule: CCC[C@H]1C(=O)N(S(C)(=O)=O)[C@H]2CCN(C(=O)CCCN3CCCCCC3)[C@H]12 (relative stereo) [Example 86, hydrochloride]
assayed target: human neutrophil elastase (Homo sapiens, UniProt P08246)
pIC50: 6.99

molecule: C=CC[C@H]1C(=O)N(S(=O)(=O)c2ccc3ccccc3c2)[C@H]2CCN(C(=O)OCc3ccccc3)[C@H]12 (relative stereo) [Example 1]
assayed target: human neutrophil elastase (Homo sapiens, UniProt P08246)
pIC50: 7.44

a: CC(C)[C@H]1C(=O)N(S(C)(=O)=O)[C@H]2CCN(C(=O)c3ccc(CNC4CC4)cc3)[C@H]12.Cl (relative stereo) [Example 180, hydrochloride]
b: CCC[C@H]1C(=O)N(S(C)(=O)=O)[C@H]2CCN(C(=O)CN3CCOCC3)[C@H]12 (relative stereo) [Example 107, hydrochloride]
c: CC(C)[C@H]1C(=O)N(S(C)(=O)=O)[C@H]2CCN(C(=O)/C=C/CN(C(C)C)C(C)C)[C@H]12.Cl (relative stereo) [Example 144, hydrochloride]
d: CCC[C@H]1C(=O)N(S(C)(=O)=O)[C@H]2CCN(S(=O)(=O)c3cccc(N)c3)[C@H]12 (relative stereo) [Example 235, hydrochloride]
# rank by pIC50, ascending (min first) API: response body holds the labels in the requested order.
b, c, a, d

---

- assayed target: human neutrophil elastase (Homo sapiens)
- Sequence (P08246 30-267): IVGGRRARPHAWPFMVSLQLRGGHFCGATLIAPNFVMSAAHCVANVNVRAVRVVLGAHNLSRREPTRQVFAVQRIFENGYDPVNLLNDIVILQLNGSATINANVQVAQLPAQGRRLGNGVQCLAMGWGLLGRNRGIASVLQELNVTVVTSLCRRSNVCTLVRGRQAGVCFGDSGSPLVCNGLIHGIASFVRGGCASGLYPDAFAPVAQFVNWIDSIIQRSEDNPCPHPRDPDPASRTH
- measurement notes: In vitro assay of human neutrophil elastase (HNE)
- Format: biochemical
- test conditions: 118 nM purified human neutrophil elastase, pH 8.6, 15 min incubation at 30° C., MeO-succinyl-alanyl-alanyl-prolyl-valyl-p-nitroanilide substrate; read-out: HNE IC50
- Experimental: In Vitro Assays of Human Neutrophil Elastase 118 nM purified human neutrophil elastase Suitable concentrations of compound under test diluted with water from a 10 mM stock solution in dimethylsulphoxide. […] The mixture above is incubated for fifteen minutes at 30° C. at which time the remaining elastase activity is measured for 10 minutes in a BioTek 340i plate-reader, after the addition of 0.6 mM MeO-succinyl-alanyl-alanyl-prolyl-valyl-p-nitroanilide. […]
Counter-ions that a name gives are not always drawn.
quantity name: IC50 (nM)

Take a look at these entries with their results.
compound: CCC[C@H]1C(=O)N(S(C)(=O)=O)[C@H]2CCN(C(=O)c3ccccn3)[C@H]12 (relative stereo)
IC50 [nM]: 9
--
compound: CCC[C@H]1C(=O)N(S(=O)(=O)/C=C/c2ccccc2)[C@H]2CCN(S(=O)(=O)Cc3ccccc3)[C@H]12 (relative stereo)
IC50 [nM]: 458

I: CCC[C@H]1C(=O)N(S(=O)(=O)c2ccc3ccccc3c2)[C@H]2CCN(C(=O)CCCCCN3CCCCC3)[C@H]12 (relative stereo) [Example 40, tartrate]
II: C=CC[C@H]1C(=O)N(S(=O)(=O)c2csc3ccccc23)[C@H]2CCN(C(=O)OCc3ccccc3)[C@H]12 (relative stereo)
III: CCC[C@H]1C(=O)N(S(C)(=O)=O)[C@H]2CCN(C(=O)c3ccncc3)[C@H]12 (relative stereo)
IV: CCC[C@H]1C(=O)N(S(C)(=O)=O)[C@H]2CCN(C(=O)CCCCCN3CCCCCC3)[C@H]12 [Example 115, hydrochloride]
# rank by IC50, ascending (min first) API: response body holds the labels in the requested order.
III, I, II, IV

I: CCC[C@H]1C(=O)N(S(=O)(=O)c2ccc3ccccc3c2)[C@H]2CCN(S(=O)(=O)CCCCN3CCOCC3)[C@H]12 (relative stereo)
II: CCC[C@H]1C(=O)N(S(=O)(=O)c2ccc(C#N)cc2)[C@H]2CCN(C(=O)CCCCCN3CCCCC3)[C@H]12 (relative stereo)
III: CCC[C@H]1C(=O)N(S(C)(=O)=O)[C@H]2CCN(C(=O)c3ccc(NC(C)=O)cc3)[C@H]12 (relative stereo)
# rank by IC50, ascending (min first) API: response body holds the labels in the requested order.
II, III, I

A: CON(C)C/C=C/C(=O)N1CC[C@H]2[C@H]1[C@@H](C(C)C)C(=O)N2S(C)(=O)=O (relative stereo) [Example 147, hydrochloride]
B: CCC[C@H]1C(=O)N(S(C)(=O)=O)[C@H]2CCN(C(=O)CCN3CCCCC3)[C@H]12 (relative stereo) [Example 30, hydrochloride]
C: CCC[C@H]1C(=O)N(S(C)(=O)=O)[C@H]2CCN(C(=O)CCN3CCCCC3)[C@H]12 [Example 116, hydrochloride]
D: CCC[C@H]1C(=O)N(S(C)(=O)=O)[C@H]2CCN(C(=O)CCCCCN3CCN(C)CC3)[C@H]12 (relative stereo) [Example 79, dihydrochloride]
# rank by IC50, ascending (min first) API: response body holds the labels in the requested order.
D, A, B, C
(D: 50 nM, A: 96 nM, B: 189 nM, C: 417 nM)

a: CCC[C@H]1C(=O)N(S(=O)(=O)c2ccc(N)cc2)[C@H]2CCN(C(=O)CCCCCN3CCCCC3)[C@H]12 (relative stereo)
b: C=CC[C@H]1C(=O)N(S(=O)(=O)c2ccccc2)[C@H]2CCN(C(=O)OCc3ccccc3)[C@H]12 (relative stereo)
c: CCC[C@H]1C(=O)N(S(C)(=O)=O)[C@H]2CCN(C(=O)c3ccc(NC(C)=O)nc3)[C@H]12 (relative stereo)
d: CC(C)[C@H]1C(=O)N(S(C)(=O)=O)[C@H]2CCN(C(=O)/C=C/CNC3CC3)[C@H]12.Cl (relative stereo) [Example 137, hydrochloride]
e: CCC[C@H]1C(=O)N(S(=O)(=O)C(C)C)[C@H]2CCN(C(=O)CCN3CCCCC3)[C@H]12 (relative stereo)
Thanks in advance: please rank these 5 entries by IC50, highest to lowest. API: response body holds the labels in the requested order.
e, b, a, d, c
(e: 1030 nM, b: 531 nM, a: 71 nM, d: 45 nM, c: 22 nM)
